System: T-47D breast
TEST_SUMMARY: NCI tumour cell line growth inhibition, 48 h
Consider the following compounds; for each one, report its GI50.

## Input # lookup: GI50 of COc1cc(O)c2c(c1)C(=O)c1cc3c(c(O)c1C2=O)C(OC1OC(C)C(O)C(O)C1OC)C(OC)C(C)(O)C3=O (stereo not drawn)
## Output 3.12 µM

## Input Name the reported GI50 value associated with the compound O=C(NO)c1ccc(Cn2c(=O)n(-c3ccccc3F)c(=O)c3ccccc32)cc1
## Output 1.38 µM

## Input // query GI50 value for entry CCOC(=O)/C(=C(/C)NCC(C)C)c1cc(O)c(O)c2c(C)cc(=O)[nH]c12
## Output 5.09 µM

## Input Look up GI50 for this compound: CCCCCCc1nc2nc(Cl)c(Cl)nc2[nH]1
## Output 2.68 µM

## Input Consider the compound CC1=C([Te]c2ccc(O)cc2)C(=O)c2ccccc2C1=O and give its measured GI50.
## Output 1.1 µM

## Input Looking for the measured GI50 of NC1=NCCN1CC(=O)O , can you help?
## Output > 10000 µM

## Input Requested read-out: GI50. Entry: O=C(NCc1ccncc1)C12CC3CC(C1)CC(c1ccc(Cl)cc1)(C3)C2
## Output 6.88 µM

## Input Can you share its GI50? I mean this compound: CC[C@@]1(O)C(=O)OCc2c1cc1n(c2=O)Cc2c-1nc1cc3c(cc1c2C)OCO3
## Output < 0.0001 µM

====

System: 786-0 renal
TEST_SUMMARY: NCI tumour cell line growth inhibition, 48 h
QUANTITY_NAME: GI50

## Input Recorded GI50 for C/C(=C(\c1ccc(OCCN2CCCCCC2)cc1)c1ccc(OC(=O)Cc2ccccc2)cc1)c1ccc(Cl)cc1 , please?
## Output 1780 nM

## Input What value of measured GI50 is listed for CN(C)CCCNC(=O)c1cncnc1Nc1ccc(OCc2cccc(F)c2)c(Cl)c1 ?
## Output 1660 nM

## Input Please report the recorded GI50 for O=C(Nc1nc2ccc(F)cc2s1)c1cccnc1Nc1ccc(Cl)cc1 .
## Output 2930 nM

## Input Which GI50 is reported for this compound? COc1cc(OC)c(NC(=O)c2cc3ccccc3cc2O)cc1Cl
## Output 4510 nM

## Input Entry Cc1cc(Oc2ccc3nc(COc4ccc(CC5SC(=O)NC5=O)cc4)n(C)c3c2)cc(C)c1N (stereo not given) has what GI50?
## Output 49900 nM

====

Consider the following compounds; for each one, report its TGI.
System: SR leukemia
TEST_SUMMARY: NCI tumour cell line growth inhibition, 48 h

## Input Which TGI reading was recorded for the compound N#C/C(=C/Sc1ccccc1)C(=O)O ?
## Output > 100 µM

## Input # query: TGI of entry COc1cc(/C=C/C(=O)CC(=O)/C=C/c2ccc(O)c(OC)c2)ccc1O
## Output 14.6 µM

## Input For the compound CC(=O)O[C@H]1C(=O)[C@@]2(C)[C@H]([C@H](OC(=O)c3ccccc3)[C@]3(O)C[C@H](OC(=O)[C@H](O)[C@@H](NC(=O)C(C)(C)C)c4ccccc4)C(C)=C1C3(C)C)[C@]1(OC(C)=O)CO[C@@H]1C[C@@H]2O , what TGI is on record?
## Output > 2.58 µM

## Input Recorded TGI for CCCCCCCC(=O)OCC1OC(OC)C(NC(=O)N(CCCl)N=O)C(O)C1O (centres undefined) , please?
## Output 23.9 µM

## Input For COc1ccc(-c2nc(N3CCN(C(=O)C4CCCCC4)CC3)c3c4c(sc3n2)CCCC4)cc1 , what is its reported TGI?
## Output > 100 µM

## Input Fill in the blank: the reported TGI of O=C(/C(=C/c1ccc([N+](=O)[O-])cc1)SCc1ccc(F)cc1)c1ccc(Cl)cc1 is ____.
## Output > 100 µM

## Input Look up TGI for this compound: CC(C)(C)c1ccc(/C=N/NC(=O)CSCC(=O)N/N=C/c2ccc(C(C)(C)C)cc2)cc1
## Output 3.76 µM

## Input For the compound CCOc1ccccc1NC(=O)CCc1n[nH]c(=S)o1 , what TGI is on record?
## Output > 100 µM

## Input # input compound: COc1cnc2c(c1)C(=O)c1c-2n(CCCNC(C)C)c(=O)c2cc(F)ccc12 ; wanted: its TGI
## Output 0.839 µM

## Input What does the record list as TGI for C1=NCCNCCNCCN=Cc2ccccc2OCc2cccc(n2)COc2ccccc21 ?
## Output 88.9 µM

## Input Fill blank: measured TGI of the compound COc1cccc(Cc2cc(=O)c3ccc(C)nc3[nH]2)c1 is ____.
## Output > 100 µM

## Input What does the record list as TGI for COc1ccc(-n2c(N)c(C#N)c(C#N)c2-c2ccccc2)cc1 ?
## Output > 100 µM

## Input Item under review: COc1ccc2c(c1OC)OCC(CN(C)C)C2=O (centres undefined) . Reported TGI?
## Output 10.5 µM

## Input Param item = CC[C@@]1(O)C(=O)OCc2c1cc1n(c2=O)Cc2c-1nc1cc3c(cc1c2C)OCO3 ; retrieve measured TGI.
## Output 0.000207 µM

## Input Consider the compound CC(C)(C)OC(=O)C1CC[C@@H](CC(=O)Oc2ccc([N+](=O)[O-])cc2)N1 (some centres undefined) and give its measured TGI.
## Output > 100 µM

## Input // returns reported TGI for input Cc1cc(O)cc(C)c1/C=C/c1cncc(-c2nn[nH]n2)c1
## Output > 25 µM

## Input Entry O=C1OCc2cc3cc4c(cc3c(-c3ccc5c(c3)OCO5)c21)OCO4 (tested in a mixture with another compound) has what TGI?
## Output > 100 µM

## Input Find the recorded TGI belonging to O=c1[nH]cnc2c1ncn2[C@@H]1C[C@H]1CO and report it.
## Output > 100 µM

## Input # input compound: C=CCNS(=O)(=O)c1ncnc2nc[nH]c12 ; wanted: its TGI
## Output > 100 µM

====

Assign GI50 to each entry below.
Test system: SK-MEL-2 melanoma
TEST_SUMMARY: NCI tumour cell line growth inhibition, 48 h

## Input So what's the measured GI50 for this one? O=C(Nc1nc2ccc(F)cc2s1)c1cccnc1Nc1ccc(Cl)cc1
## Output 2110 nM

## Input // query GI50 value for entry Nc1c(C(=O)c2ccc(CCCN3CCOCC3)cc2)cnn1-c1ccc(F)cc1
## Output > 25000 nM

## Input What does the data say about its GI50? Entry: O=S(=O)(Nc1cc(Cl)ccc1Cl)c1ccc(-c2cnc(C3CC3)o2)cc1
## Output 11100 nM

## Input Please look up its GI50: C[C@H]1[C@H]2[C@H]3CC[C@@H]4[C@@]5(C)C/C(=C/c6cccnc6)C(=O)C(C)(C)[C@@H]5CC[C@@]4(C)[C@]3(C)CC[C@]23CO[C@]1(C)[C@@H](C(=O)/C=C\c1cccnc1)C3
## Output 1210 nM

====

Test system: MDA-N
TEST_SUMMARY: NCI tumour cell line growth inhibition, 48 h
QUANTITY_NAME: TGI

## Input Would you mind telling me what TGI value was observed for c1ccc(C[N+]23CN4CN(CN(C4)C2)C3)cc1 ?
## Output > 100 µM

## Input Item Cn1c2c3ccc(Cl)cc3nc-2c(Cl)c2ccccc21 has what recorded TGI?
## Output 46.2 µM

## Input Field request: TGI | item: COC(=O)C1C2CC3C1C3C2C(=O)OC (configuration not stated)
## Output > 100 µM

## Input For O=[N+]([O-])c1cc(Cl)cc2cc(Br)cnc12 , what is its reported TGI?
## Output > 31.6 µM

## Input Fill blank: measured TGI of the compound Br/C(=N\Nc1nn[nH]n1)c1ccncc1 is ____.
## Output > 100 µM

## Input Find the recorded TGI belonging to O[C@@H]1C[C@H]2N3CC[C@@]2(c2cc4c(cc2C3)OCO4)[C@H]2O[C@@H]12 and report it.
## Output > 100 µM

## Input Requested field: TGI. Item: COC(=O)CSC(=S)Nc1nnc(NC(=S)SCOC(C)=O)n1C(=S)SCC(=O)OC
## Output > 100 µM

====

System: NCI-H460 lung
TEST_SUMMARY: NCI tumour cell line growth inhibition, 48 h
QUANTITY_NAME: TGI

## Input Report TGI for Cc1ccc(/C=C2\Cc3cccc(C)c3C2=O)c(C(=O)O)c1 please.
## Output > 100 µM

## Input Using the record for CCCCCCCC(=O)OCC1OC(OC)C(NC(=O)N(CCCl)N=O)C(O)C1O (configuration not stated) , report its TGI.
## Output > 39.2 µM

## Input Dear colleague, I am looking for the recorded TGI of the following compound: OC1C2CCC1C1C3C=CC(C3)C21 (configuration not stated)
## Output > 100 µM

## Input Would you mind telling me what TGI value was observed for COc1cccc2c1c(C1=C(c3cn(C)c4ccccc34)C(=O)NC1=O)cn2C ?
## Output > 25 µM

## Input What does the record list as TGI for N#CS.N=C=S.N=C=S.[Cu+2].[NH2-].[NH2-].[NH2-].[NH2-].c1ccc2ncccc2c1 ?
## Output 48.7 µM

## Input For the compound shown here, O=c1[nH]cnc2c1ncn2[C@@H]1C[C@H]1CO , give the reported TGI.
## Output > 100 µM

## Input State the recorded TGI for this entry: CN(C)Cc1cc(C=O)cc(CN(C)C)c1O
## Output > 100 µM

## Input # TGI lookup, item COc1ccc(-c2c(-c3cc(OC)c(OC)c(OC)c3)noc2N)cc1
## Output > 33.8 µM

## Input Item under review: CNC(=O)Oc1cc(C)c(/C=C/c2cncc(C(=O)NC)c2)c(C)c1 . Reported TGI?
## Output > 25 µM

## Input I'd like to know its TGI. The compound in question is O=C(NC1C2CC3CC(C2)CC1C3)c1cc(/C=C/c2ccccc2)[nH]c(=S)n1 (configuration not stated)
## Output > 100 µM

## Input Dear colleague, I am looking for the recorded TGI of the following compound: COC(=O)C1C2CC3C1C3C2C(=O)OC (configuration not stated)
## Output > 100 µM

## Input If you can, please state the reported TGI value of Cc1nn(C)cc1P(=S)(c1ccccc1)c1ccccc1 .
## Output > 100 µM

## Input Item O=c1oc2ccc(-n3c(=O)c4ccccc4c4ccccc4c3=O)cc2c2ccccc12 has what recorded TGI?
## Output > 100 µM

## Input # get_value(readout='TGI', item= C[n+]1ccc(-c2c3nc(c(-c4cc[n+](C)cc4)c4ccc([n-]4)c(-c4cc[n+](C)cc4)c4nc(c(-c5cc[n+](C)cc5)c5ccc2[n-]5)C=C4)C=C3)cc1.[I-].[Zn+2] )
## Output 53.5 µM

## Input # input compound: O=C(/C=C/c1ccccc1)N1CCCCC1 ; wanted: its TGI
## Output > 100 µM

## Input What value of TGI has been reported for the following compound? COc1ccc2nc3ccccc3c(NCCCN(C)CCCl)c2c1
## Output 1.07 µM

## Input Which TGI is listed for O=c1c2ccccc2c2ccccc2c(=O)n1Cc1ccc2c(c1)OCO2 ?
## Output > 100 µM

## Input Look up TGI for this compound: CC(C)=CCN1c2ccc(Cl)cc2NC(=O)CC1C (configuration not stated)
## Output 37.6 µM

## Input What does the data say about its TGI? Entry: CCCCCCc1nc2nc(Cl)c(Cl)nc2[nH]1
## Output > 100 µM

## Input Could you share which TGI value was measured for O=c1c2cc([N+](=O)[O-])ccc2n2n1CCCC2 ?
## Output > 100 µM

## Input For the compound CC(C)(C)OC(=O)C1CC[C@@H](CC(=O)Oc2ccc([N+](=O)[O-])cc2)N1 (some centres not stated) , what TGI is on record?
## Output > 100 µM

## Input Requested field: TGI. Item: NCCN1C(=O)C2C3c4ccccc4C(c4ccccc43)C2C1=O (configuration not stated)
## Output > 100 µM
